Each recorded value in this set is attributed to patent US8575201B2.

- System: synthesis of LTB4 in human whole blood
- MEASUREMENT PROTOCOL: Human whole blood LTB4 production inhibition assay
- Assay type: cell-based
- STATED CONDITIONS: calcimycin stimulated, read-out: hWB LTB4 IC50
pIC50: −log10 of the molar value.
Kind request: treat 6 as inclusive, so pIC50 at 6 or higher is 1 (yes), anything lower is 0 (no).

input: Tell me whether pIC50 is at least 6 here: CC(C)(N)Cn1cc(-c2nc(C3(c4ccc(-c5cnc(N)nc5)nc4)CCC3)no2)cn1
output: 1 (yes)

input: Now give it for CNc1ncccc1-c1nc(C2(c3ccc(-c4cnc(N)nc4)nc3)CCC2)no1 too.
output: 0 (no)

input: Another compound to check: Nc1ncc(-c2ccc(C3(c4noc(-c5ccncc5)n4)CCOCC3)nc2)cn1
output: 0 (no)

input: // same read-out, input: Cn1nccc1-c1nc(C2(c3ccc(-c4cnc(N)nc4)nc3)CCC2)no1
output: 1 (yes)

input: What about CC(C)NC(=O)Cn1cc(-c2nc(C3(c4ccc(-c5cnc(N)nc5)nc4)CCC3)no2)cn1 ?
output: 1 (yes)

input: Likewise for CS(=O)(=O)c1cccc(-c2nc(C3(c4ccc(-c5cnc(N)nc5)nc4)CCC3)no2)c1 ?
output: 0 (no)

input: Input Nc1ncc(-c2ccc(C3(c4noc(-c5ccc(N6CC[C@H](O)C6)nc5)n4)CCC3)cn2)cn1
output: 1 (yes)

input: Also CCN(C)C(=O)Cn1cc(-c2nc(C3(c4ccc(-c5cnc(N)nc5)nc4)CCC3)no2)cn1 , if possible.
output: 1 (yes)

input: Now give it for Nc1ncc(-c2ccc(C3(c4noc(-c5ccc(NCC6(O)CC6)nc5)n4)CCC3)cn2)cn1 too.
output: 1 (yes)

input: Also Cn1cnc(-c2nc(C3(c4ccc(-c5cnc(N)nc5)nc4)CCC3)no2)c1 ?
output: 1 (yes)

input: Same again, this time with Nc1ccc(-c2nc(C3(c4ccc(-c5cnc(N)nc5)nc4)CCC3)no2)cn1
output: 1 (yes)

input: Next: CN(C)c1ccc(-c2nc(C3(c4ccc(-c5cnc(N)nc5)nc4)CCC3)no2)cn1
output: 1 (yes)

input: Now this one: CCNc1cnc(-c2nc(C3(c4ccc(-c5cnc(N)nc5)nc4)CCC3)no2)cn1
output: 1 (yes)

input: Then what about the compound CNC(=O)Cn1cc(-c2nc(C3(c4ccc(-c5cnc(N)nc5)nc4)CCC3)no2)cn1 ?
output: 1 (yes)

input: Same read-out for CC(C)(CO)n1cc(-c2nc(C3(c4ccc(-c5cnc(N)nc5)nc4)CCC3)no2)cn1 ?
output: 1 (yes)

input: Same lookup for Nc1ncc(-c2ccc(C3(c4noc(-c5cccnc5)n4)CCOCC3)cn2)cn1 , please.
output: 0 (no)
